B1: TRIM39 (parent)
chain: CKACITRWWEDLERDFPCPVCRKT

- Variants of: B1
- ASSAY: protein stability index of a GFP-peptide fusion (GPS, HEK-293T) (PSI 1-6); higher = more stable;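 note: lentivirally expressed fusions sorted by FACS into six bins by GFP to DsRed ratio, PSI derived from sequencing read proportions per bin multiplied by bin number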
- DETAILS: c terminus: a fixed tail appended
Would you kindly list protein stability index for each of these variants?
Numbers only.

The cases that follow already have their protein stability index on record.
{"columns": ["MUTATIONS", "protein stability index"],
 "data": [
  ["F16Q", 4.59],
  ["D15I", 2.43],
  ["E13V", 2.98]
]}

Items follow; give protein stability index for each.
1. K23C
2. P19F
3. T6G
4. R14L

1. 3.13
2. 1.95
3. 4.36
4. 3.4

Items follow; give protein stability index for each.
1. R14T
2. C21A
3. K2F

1. 4.63
2. 2.18
3. 3.34
